- protocolText: In vitro inhibition fibrin clot formation after addition of thrombin.
- Format: functional, Homo sapiens
Listing of recorded IC50 by entry.
# unit: nM | format: bare number

Here are 4 molecules together with their reported answers.
CC[C@H](C)[C@H](NC(=O)[C@@H]1CCCN1C(=O)C(CCC(=O)O)NC(=O)[C@H](Cc1ccc(O)cc1)NC(=O)CCC(=O)O)C(=O)N1CCC[C@H]1C(=O)NC(CCC(=O)O)C(=O)NC(CCC(=O)O)C(=O)N[C@@H](C)C(=O)N[C@@H](Cc1ccc([N+](=O)[O-])cc1)C(=O)NC(CCC(=O)O)C(=O)O (stereo in doubt); 710
CC[C@H](C)[C@H](NC(=O)[C@@H]1CCCN1C(=O)C(CCC(=O)O)NC(=O)[C@H](Cc1ccc(O)cc1)NC(=O)CCC(=O)O)C(=O)N1CCC[C@H]1C(=O)NC(CCC(=O)O)C(=O)NC(CCC(=O)O)C(=O)N[C@@H](Cc1ccc(N)cc1)C(=O)N[C@@H](CC(C)C)C(=O)NC(CCC(=O)O)C(=O)O (stereo in doubt); 380
CC[C@H](C)[C@H](NC(=O)[C@@H]1CCCN1C(=O)C(CCC(=O)O)NC(=O)[C@H](Cc1ccc(O)cc1)NC(=O)CCC(=O)O)C(=O)N1CCC[C@H]1C(=O)NC(CCC(=O)O)C(=O)NC(CCC(=O)O)C(=O)N[C@@H](C)C(=O)N[C@@H](Cc1ccc(NS(=O)(=O)O)cc1)C(=O)NC(CCC(=O)O)C(=O)O (stereo in doubt); 2500
CC[C@H](C)[C@H](NC(=O)[C@@H]1CCCN1C(=O)C(CCC(=O)O)NC(=O)[C@H](Cc1ccccc1)NC(=O)CCC(=O)O)C(=O)N1CCC[C@H]1C(=O)NC(CCC(=O)O)C(=O)NC(CCC(=O)O)C(=O)N[C@@H](Cc1ccc(OS(=O)(=O)O)cc1)C(=O)N[C@@H](CC(C)C)C(=O)NC(CCC(=O)O)C(=O)O (stereo in doubt); 87

Exam item: Param item = CC[C@H](C)[C@H](NC(=O)[C@@H]1CCCN1C(=O)C(CCC(=O)O)NC(=O)[C@H](Cc1ccccc1)NC(=O)CCC(=O)O)C(=O)N1CCC[C@H]1C(=O)NC(CCC(=O)O)C(=O)NC(CCC(=O)O)C(=O)N[C@@H](C)C(=O)N[C@@H](Cc1ccc(OS(=O)(=O)O)cc1)C(=O)NC(CCC(=O)O)C(=O)O (stereo in doubt) ; retrieve measured IC50.
Marked response: 300

Exam item: # iterate: CC[C@H](C)[C@H](NC(=O)[C@@H]1CCCN1C(=O)C(CCC(=O)O)NC(=O)[C@H](Cc1ccccc1)NC(=O)CCC(=O)O)C(=O)N1CCC[C@H]1C(=O)NC(CCC(=O)O)C(=O)NC(CCC(=O)O)C(=O)N[C@@H](C)C(=O)N[C@@H](Cc1ccc(O)cc1)C(=O)NC(CCC(=O)O)C(=O)O (stereo in doubt)
Marked response: 1200

Exam item: Could you do the same for CC[C@H](C)[C@H](NC(=O)[C@@H]1CCCN1C(=O)C(CCC(=O)O)NC(=O)[C@H](Cc1ccccc1)NC(=O)CCC(=O)O)C(=O)N1CCC[C@H]1C(=O)NC(CCC(=O)O)C(=O)NC(CCC(=O)O)C(=O)N[C@@H](Cc1ccc(O)cc1)C(=O)N[C@@H](CC(C)C)C(=O)NC(CCC(=O)O)C(=O)O (stereo in doubt) , please?
Marked response: 1600
